# Test system: Liver
# test method notes: Half life in mouse liver microsomes by LC/MS/MS analysis in presence of NADPH
# Format: ADME, Microsome
Label yes for high-side t1/2 (at or above 20 min) and no for low-side t1/2 (below it).

INSERT INTO measurements (molecular_string, assigned_label) VALUES
  ('C[C@H](Nc1cccc(Cl)c1Cl)C(=O)Nc1ccc2oc(-c3ccncc3)nc2c1', 'yes'),
  ('C[C@@H](C(=O)Nc1ccc2oc(-c3ccncc3)nc2c1)c1ccccc1', 'yes');

Next, consider the following compound.
Say whether `C[C@H](Oc1cccc(Cl)c1Cl)C(=O)Nc1ccc2oc(-c3cncs3)nc2c1` shows t1/2 of 20 min or more. no

----------
# test method notes: Cytotoxicity against human HEK293 cells after 3 days by Alamar blue assay
# Format: cell-based
# measurement conditions: read-out: LD50
observed property: CC50 at 72 h

Solved entries (count: 5):
INSERT INTO results (compound, observed_result) VALUES
  ('COc1ccc(OC(C)C(=O)Nc2ccc3oc(-c4ccncc4)nc3c2)cc1 (stereo unspecified)', '> 50 µM'),
  ('CC(Oc1cccc(Cl)c1Cl)C(=O)Nc1ccc2oc(-c3ccncc3)nc2c1 (stereo unspecified)', '> 50 µM'),
  ('C[C@H](Oc1cccc([N+](=O)[O-])c1Cl)C(=O)Nc1ccc2oc(-c3ccncc3)nc2c1', '> 50 µM'),
  ('C[C@H](Nc1cccc(Cl)c1Cl)C(=O)Nc1ccc2oc(-c3ccncc3)nc2c1', '> 50 µM'),
  ('CC(Oc1ccccc1Cl)C(=O)Nc1ccc2oc(-c3ccncc3)nc2c1 (stereo unspecified)', '12.5 µM');

Retrieve CC50 at 72 h measured for `C[C@H](Oc1cccc(Cl)c1Cl)C(=O)Nc1ccc2nc(-c3ccncc3)oc2c1` and print it. > 50 µM

----------
# target or test system: Inosine-5'-monophosphate dehydrogenase (Cryptosporidium parvum)
Entries and their Kis values follow.
Give the quantity in nM, number only.

INSERT INTO assay_data (molecule, observed_property, unit_name, observed_result) VALUES
  ('C[C@@H](C(=O)Nc1ccc2oc(-c3ccncc3)nc2c1)c1ccccc1', 'Kis', 'nM', 40),
  ('C[C@H](Oc1cccc2ccccc12)C(=O)Nc1ccc2oc(-c3cncs3)nc2c1', 'Kis', 'nM', 0.9),
  ('CC(Oc1ccc(Cl)cc1Cl)C(=O)Nc1ccc2oc(-c3ccncc3)nc2c1 (centres undefined)', 'Kis', 'nM', 33);

Now for a further molecule.
Give Kis only, for `C[C@H](Oc1cccc(Cl)c1Cl)C(=O)Nc1cc(Cl)c2oc(-c3ccncc3)nc2c1` , using Inosine-5'-monophosphate dehydrogenase (Cryptosporidium parvum) data. 150

----------
Entries and their log10(IC50) values follow.
# target or test system: Inosine-5'-monophosphate dehydrogenase (Cryptosporidium parvum)
# Sequence (Q8T6T2 whole entry): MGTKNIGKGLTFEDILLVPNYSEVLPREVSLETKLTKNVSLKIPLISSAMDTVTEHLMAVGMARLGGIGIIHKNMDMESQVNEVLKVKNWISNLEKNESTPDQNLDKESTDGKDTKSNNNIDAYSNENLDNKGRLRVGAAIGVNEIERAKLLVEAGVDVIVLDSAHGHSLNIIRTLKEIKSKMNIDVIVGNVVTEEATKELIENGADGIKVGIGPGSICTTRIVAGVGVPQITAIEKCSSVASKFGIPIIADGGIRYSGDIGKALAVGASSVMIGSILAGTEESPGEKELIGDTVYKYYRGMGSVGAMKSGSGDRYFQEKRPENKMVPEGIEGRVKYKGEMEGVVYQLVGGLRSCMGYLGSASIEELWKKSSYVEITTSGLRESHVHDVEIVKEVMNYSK
# test method notes: Inhibition of Cryptosporidium parvum N-terminal His6-tagged IMPDH-mediated NADH production expressed in Escherichia coli BL21(DE3) preincubated for 5 mins prior to substrate addition by fluorescence assay
Plainly stated, the numbers are log10 of IC50 given in nM.

INSERT INTO assay_data (compound, observed_result) VALUES
  ('CC(Oc1ccc(Cl)cc1Cl)C(=O)Nc1ccc2oc(-c3ccccn3)nc2c1 (stereo not drawn)', 2.32),
  ('C[C@H](Oc1cccc(Cl)c1Cl)C(=O)Nc1ccc2oc(-c3ccncc3)nc2c1', 0.08),
  ('C[C@H](Oc1cccc(Cl)c1Cl)C(=O)Nc1cc(Cl)c2oc(-c3ccncc3)nc2c1', 2.38),
  ('C[C@@H](C(=O)Nc1ccc2oc(-c3ccncc3)nc2c1)c1cccc(Cl)c1Cl', 1.78),
  ('C[C@H](Oc1cccc2ccccc12)C(=O)Nc1ccc2oc(-c3cncs3)nc2c1', 0.43),
  ('C[C@H](Oc1cccc(Cl)c1Cl)C(=O)Nc1ccc2oc(-c3nccs3)nc2c1', 1.23),
  ('CC(Oc1cccc(Cl)c1Cl)C(=O)Nc1ccc2oc(-c3ccncc3)nc2c1 (stereo not drawn)', 0.48),
  ('C[C@H](Oc1cccc(Cl)c1Cl)C(=O)Nc1ccc2nc(-c3ccncc3)oc2c1', -0.22);

Retrieve log10(IC50) measured for `C[C@@H](C(=O)Nc1ccc2oc(-c3ccncc3)nc2c1)c1ccccc1` and print it. 1.35

Retrieve log10(IC50) measured for `C[C@H](Oc1cccc(Cl)c1Cl)C(=O)Nc1ccc2nc(-c3cncs3)oc2c1` and print it. 0.85

Retrieve log10(IC50) measured for `C[C@H](Nc1cccc(Cl)c1Cl)C(=O)Nc1ccc2oc(-c3ccncc3)nc2c1` and print it. -0.30

Retrieve log10(IC50) measured for CC(C)C(Oc1cccc2ccccc12)C(=O)Nc1ccc2oc(-c3ccncc3)nc2c1 (stereo not drawn) and print it. 1.38

Retrieve log10(IC50) measured for CC(Oc1ccc(Cl)cc1Cl)C(=O)Nc1ccc2oc(-c3ccncc3)nc2c1 (stereo not drawn) and print it. 1.64

----------
# target or test system: Inosine-5'-monophosphate dehydrogenase (Cryptosporidium parvum, UniProt Q8T6T2)
# test method notes: Inhibition of Cryptosporidium parvum N-terminal His6-tagged IMPDH-mediated NADH production expressed in Escherichia coli BL21(DE3) preincubated for 5 mins prior to substrate addition by fluorescence assay
observed property: pIC50
pIC50 is a log-scale quantity: -log10 of the concentration expressed in molar.

INSERT INTO measurements (compound, observed_result) VALUES
  ('CC(Oc1ccc(Cl)c2ccccc12)C(=O)Nc1ccc2oc(-c3ccncc3)nc2c1 (stereo not given)', 7.57);

Now for a further compound.
Retrieve pIC50 measured for CC(Oc1cccc(Cl)c1)C(=O)Nc1ccc2oc(-c3ccncc3)nc2c1 (stereo not given) and print it. 7.70

----------
# target or test system: Inosine-5'-monophosphate dehydrogenase (Cryptosporidium parvum)
# Sequence (Q8T6T2 whole entry): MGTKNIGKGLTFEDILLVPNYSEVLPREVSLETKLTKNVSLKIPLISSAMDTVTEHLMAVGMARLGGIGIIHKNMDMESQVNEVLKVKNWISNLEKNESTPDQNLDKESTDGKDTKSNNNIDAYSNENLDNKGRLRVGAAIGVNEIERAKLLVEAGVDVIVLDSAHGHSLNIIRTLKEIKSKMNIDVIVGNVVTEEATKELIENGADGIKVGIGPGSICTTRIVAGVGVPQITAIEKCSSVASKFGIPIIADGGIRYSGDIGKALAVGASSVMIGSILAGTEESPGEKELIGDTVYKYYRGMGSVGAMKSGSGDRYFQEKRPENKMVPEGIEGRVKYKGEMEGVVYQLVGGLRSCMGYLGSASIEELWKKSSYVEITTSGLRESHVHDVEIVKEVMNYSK
# test method notes: Inhibition of Cryptosporidium parvum N-terminal His6-tagged IMPDH-mediated NADH production expressed in Escherichia coli BL21(DE3) preincubated for 5 mins prior to substrate addition by fluorescence assay in presence of BSA
Entries and their pIC50 values follow.
pIC50 is a log-scale quantity: -log10 of the concentration expressed in molar.

Solved entries (count: 6):
INSERT INTO measurements (molecule, target_or_test_system, observed_property, observed_result) VALUES
  ('C[C@H](Oc1cccc(Cl)c1Cl)C(=O)Nc1ccc2nc(-c3cncs3)oc2c1', 'Inosine-5''-monophosphate dehydrogenase (Cryptosporidium parvum)', 'pIC50', 7.22),
  ('C[C@H](Oc1cccc(Cl)c1Cl)C(=O)Nc1ccc2oc(-c3cncs3)nc2c1', 'Inosine-5''-monophosphate dehydrogenase (Cryptosporidium parvum)', 'pIC50', 8.64),
  ('CC(Oc1ccc(Cl)c2ccccc12)C(=O)Nc1ccc2oc(-c3ccncc3)nc2c1 (stereo not given)', 'Inosine-5''-monophosphate dehydrogenase (Cryptosporidium parvum)', 'pIC50', 7.28),
  ('C[C@H](Oc1cccc2ccccc12)C(=O)Nc1ccc2oc(-c3ccncc3)nc2c1', 'Inosine-5''-monophosphate dehydrogenase (Cryptosporidium parvum)', 'pIC50', 8.10),
  ('CC(Oc1ccc(Cl)cc1Cl)C(=O)Nc1ccc2oc(-c3ccncc3)nc2c1 (stereo not given)', 'Inosine-5''-monophosphate dehydrogenase (Cryptosporidium parvum)', 'pIC50', 6.92),
  ('CC(C)C(Oc1cccc2ccccc12)C(=O)Nc1ccc2oc(-c3ccncc3)nc2c1 (stereo not given)', 'Inosine-5''-monophosphate dehydrogenase (Cryptosporidium parvum)', 'pIC50', 7.24);

Retrieve pIC50 measured for `C[C@H](Oc1cccc(Cl)c1Cl)C(=O)Nc1cc(Cl)c2oc(-c3ccncc3)nc2c1` and print it. 6.22
